- assay target: calmodulin (native vertebrate CaM) (vertebrate, UniProt P0DP23 1-149)
- experimental protocol: other fluorescence titration
pKd: −log10 of the molar value. No end group written: not given here.
experimental readout: pKd

A = TERAAVAIQSQFRKFQKKKAGSQS (domain or fragment, also: fluorescent reporter) [BIQPEP, fluorescent reporter containing an IQ domain sequence derived from PEP19]
B = AHKAATKIQASFRGHITRKKLKGEKKDDVQ (domain or fragment, also: fluorescent reporter) [BIQ, fluorescent reporter containing an IQ domain sequence derived from neuromodulin]
Enquiry: From the recorded data, which exceeds the other in pKd: A or B ? Your choice should be expressed through its label.
Return: B
(B: 5.54, A: 4.96)
